Ref: patent US11629143B2

- Target: EPH-A6 (Homo sapiens)
- Sequence (Q9UF33 23-1036): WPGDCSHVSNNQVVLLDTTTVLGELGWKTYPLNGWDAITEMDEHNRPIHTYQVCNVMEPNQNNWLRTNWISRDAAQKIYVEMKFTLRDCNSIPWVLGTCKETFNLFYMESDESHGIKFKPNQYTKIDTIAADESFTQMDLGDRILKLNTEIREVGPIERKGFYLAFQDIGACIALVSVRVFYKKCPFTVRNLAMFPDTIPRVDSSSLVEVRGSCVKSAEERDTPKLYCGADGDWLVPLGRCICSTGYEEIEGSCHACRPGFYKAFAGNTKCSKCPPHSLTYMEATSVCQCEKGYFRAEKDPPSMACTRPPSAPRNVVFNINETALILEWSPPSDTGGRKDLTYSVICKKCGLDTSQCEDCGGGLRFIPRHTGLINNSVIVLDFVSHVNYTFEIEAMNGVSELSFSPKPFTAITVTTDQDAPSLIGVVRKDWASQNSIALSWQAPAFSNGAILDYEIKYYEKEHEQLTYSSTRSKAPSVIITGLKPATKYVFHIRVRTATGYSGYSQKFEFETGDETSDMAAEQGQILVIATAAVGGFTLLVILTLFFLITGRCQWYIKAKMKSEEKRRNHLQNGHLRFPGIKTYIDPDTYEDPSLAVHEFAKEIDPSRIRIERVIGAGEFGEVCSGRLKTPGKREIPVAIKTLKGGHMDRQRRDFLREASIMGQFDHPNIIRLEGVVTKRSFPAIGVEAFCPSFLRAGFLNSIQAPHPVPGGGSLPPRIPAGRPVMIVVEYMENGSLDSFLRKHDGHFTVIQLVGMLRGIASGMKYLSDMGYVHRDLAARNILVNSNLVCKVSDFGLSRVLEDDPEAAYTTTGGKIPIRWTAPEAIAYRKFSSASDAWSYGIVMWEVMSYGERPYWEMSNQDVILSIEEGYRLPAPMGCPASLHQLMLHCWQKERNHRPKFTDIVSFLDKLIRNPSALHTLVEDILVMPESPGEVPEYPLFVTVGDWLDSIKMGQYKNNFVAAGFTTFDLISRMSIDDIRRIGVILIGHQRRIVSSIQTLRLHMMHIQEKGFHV
- Assay overview: Kinase panel (mobility shift)
- Type: biochemical
Parameter measured: inhibition at 5 µM

Input: Consider the compound CNC(=O)c1cc(Oc2ccc(NC(=O)c3nc(COC)oc3-c3ccc(F)cc3)cc2F)ccn1 and give its measured inhibition at 5 µM.
Output: ≥ 95%

Input: Entry under review: [2H]C([2H])([2H])NC(=O)c1cc(Oc2ccc(NC(=O)c3nc(SC)oc3-c3ccc(F)c(F)c3)cc2F)ccn1 . Reported inhibition at 5 µM?
Output: 50 to 79%

Input: Entry under review: COc1nc(C(=O)Nc2ccc(Oc3ccnc(C(=O)NC4COC4)c3)c(F)c2)c(-c2ccc(F)cc2)o1 . Reported inhibition at 5 µM?
Output: 80 to 89%

Input: Given CNC(=O)c1cc(Oc2ccc(NC(=O)c3nc(SC)oc3-c3ccc(F)cc3F)cc2F)ccn1 , state its recorded inhibition at 5 µM.
Output: 80 to 89%

Input: Given [2H]C([2H])([2H])NC(=O)c1cc(Oc2ccc(NC(=O)c3nc(SC)oc3-c3ccc(F)s3)cc2F)ccn1 , state its recorded inhibition at 5 µM.
Output: 50 to 79%

Input: Sample CNC(=O)c1cc(Oc2ccc(NC(=O)c3nc(NC)sc3-c3ccc(F)cc3C)cc2F)ccn1 — what was its inhibition at 5 µM?
Output: 80 to 89%

Next compound, please.
Input: Reported inhibition at 5 µM for CSc1nc(C(=O)Nc2ccc(Oc3ccnc(-c4cnn(C)c4)c3)c(F)c2)c(-c2ccc(F)cc2)o1 : what is it?
Output: ≥ 95%

====

- Target: EPH-A8 (Homo sapiens, UniProt P29322)
- Sequence (P29322 28-1005, species assumed): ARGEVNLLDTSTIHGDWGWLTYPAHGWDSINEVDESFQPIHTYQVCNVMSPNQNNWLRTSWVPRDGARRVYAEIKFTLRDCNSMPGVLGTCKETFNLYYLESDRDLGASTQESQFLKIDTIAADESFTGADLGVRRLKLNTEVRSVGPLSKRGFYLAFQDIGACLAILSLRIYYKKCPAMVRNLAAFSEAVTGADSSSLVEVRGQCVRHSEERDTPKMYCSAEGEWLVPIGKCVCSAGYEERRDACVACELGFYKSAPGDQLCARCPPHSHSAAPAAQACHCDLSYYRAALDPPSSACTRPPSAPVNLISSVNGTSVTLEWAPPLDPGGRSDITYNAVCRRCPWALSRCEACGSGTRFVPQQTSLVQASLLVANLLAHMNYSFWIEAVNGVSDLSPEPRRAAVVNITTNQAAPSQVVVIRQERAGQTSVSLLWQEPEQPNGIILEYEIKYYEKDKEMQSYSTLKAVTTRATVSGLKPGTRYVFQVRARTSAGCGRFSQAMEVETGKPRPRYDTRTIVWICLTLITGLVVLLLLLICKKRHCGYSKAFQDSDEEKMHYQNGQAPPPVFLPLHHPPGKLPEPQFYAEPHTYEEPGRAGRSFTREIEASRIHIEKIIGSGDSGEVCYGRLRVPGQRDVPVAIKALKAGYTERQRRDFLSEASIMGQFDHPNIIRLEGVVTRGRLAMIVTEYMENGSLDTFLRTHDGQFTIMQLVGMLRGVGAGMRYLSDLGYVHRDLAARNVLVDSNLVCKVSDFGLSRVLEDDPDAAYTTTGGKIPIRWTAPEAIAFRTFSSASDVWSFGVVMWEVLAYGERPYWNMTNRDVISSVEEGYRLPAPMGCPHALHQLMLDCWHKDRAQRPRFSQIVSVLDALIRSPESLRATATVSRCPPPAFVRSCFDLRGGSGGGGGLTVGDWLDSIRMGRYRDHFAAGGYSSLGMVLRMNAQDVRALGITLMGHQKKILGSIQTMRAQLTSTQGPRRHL
- Assay overview: Kinase panel (mobility shift)
- Type: biochemical
Parameter measured: inhibition at 5 µM

Answered cases to consult:
Input: // inhibition at 5 µM lookup, key: CSc1nc(C(=O)Nc2ccc(Oc3ccnc(N)c3Cl)c(F)c2)c(-c2ccc(F)cc2)o1
Output: < 50%

Input: What does the record list as inhibition at 5 µM for CNC(=O)c1cc(Oc2ccc(NC(=O)c3nc(SC(C)C)oc3-c3ccc(F)cc3)cc2F)ccn1 ?
Output: 80 to 89%

***
Input: Given the entry CSc1nc(C(=O)Nc2ccc(Oc3ccnc(-c4cnn(C)c4)c3)c(F)c2)c(-c2ccc(F)cc2)o1 , report its measured inhibition at 5 µM.
Output: 80 to 89%

Input: # query: inhibition at 5 µM of entry CNC(=O)c1cc(Oc2ccc(NC(=O)c3nc(SC)oc3-c3ccc(Cl)s3)cc2)ccn1
Output: 50 to 79%

Input: Returns the measured inhibition at 5 µM for the input compound. Input: CSc1nc(C(=O)Nc2ccc(Oc3ccnc(C(=O)NCCN(C)C)c3)c(F)c2)c(-c2ccc(F)cc2)o1
Output: 50 to 79%

Input: # get_value(readout='inhibition at 5 µM', item= CNC(=O)c1cc(Oc2ccc(NC(=O)c3nc(NC)oc3-c3ccc(F)cc3)cc2F)ccn1 )
Output: 50 to 79%

Input: I would be grateful if you could share the reported inhibition at 5 µM for [2H]C([2H])([2H])NC(=O)c1cc(Oc2ccc(NC(=O)c3nc(SC)oc3-c3ccc(F)c(F)c3)cc2F)ccn1 .
Output: < 50%

====

inhibition at 5 µM values, listed per item
- Target: PDGFR-a (Homo sapiens)
- Sequence (P16234 24-1089, species assumed): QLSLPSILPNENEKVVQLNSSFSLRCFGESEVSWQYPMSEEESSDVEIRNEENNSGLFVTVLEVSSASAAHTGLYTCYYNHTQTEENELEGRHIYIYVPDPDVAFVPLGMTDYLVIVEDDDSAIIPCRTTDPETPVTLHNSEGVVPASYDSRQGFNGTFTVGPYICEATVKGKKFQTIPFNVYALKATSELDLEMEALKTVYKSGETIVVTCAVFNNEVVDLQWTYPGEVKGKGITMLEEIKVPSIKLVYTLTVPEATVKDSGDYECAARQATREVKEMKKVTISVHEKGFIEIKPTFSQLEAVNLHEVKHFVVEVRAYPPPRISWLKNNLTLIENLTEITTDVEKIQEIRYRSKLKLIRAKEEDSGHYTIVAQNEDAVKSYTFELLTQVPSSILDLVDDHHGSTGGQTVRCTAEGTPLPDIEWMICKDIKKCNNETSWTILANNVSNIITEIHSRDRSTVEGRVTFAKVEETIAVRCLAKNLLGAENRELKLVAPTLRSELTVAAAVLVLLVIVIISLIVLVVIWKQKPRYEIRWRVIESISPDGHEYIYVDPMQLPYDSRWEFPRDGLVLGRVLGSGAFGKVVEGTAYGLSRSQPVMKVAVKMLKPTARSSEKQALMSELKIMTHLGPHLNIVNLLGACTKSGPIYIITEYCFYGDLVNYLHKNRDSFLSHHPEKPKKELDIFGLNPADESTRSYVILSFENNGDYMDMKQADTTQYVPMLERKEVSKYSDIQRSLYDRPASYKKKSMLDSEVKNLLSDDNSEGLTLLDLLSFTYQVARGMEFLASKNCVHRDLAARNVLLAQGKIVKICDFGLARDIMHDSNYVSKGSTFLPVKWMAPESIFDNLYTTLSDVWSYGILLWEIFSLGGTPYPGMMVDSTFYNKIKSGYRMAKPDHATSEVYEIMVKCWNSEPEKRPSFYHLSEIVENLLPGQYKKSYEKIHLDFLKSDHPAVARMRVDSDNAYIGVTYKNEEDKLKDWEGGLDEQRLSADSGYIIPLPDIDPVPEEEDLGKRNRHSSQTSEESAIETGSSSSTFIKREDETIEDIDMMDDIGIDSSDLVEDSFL
- Assay overview: Kinase panel (mobility shift)
- Format: biochemical

Please review the entries below; each comes with its answer.
Input: What measured inhibition at 5 µM goes with CSc1nc(C(=O)Nc2ccc(Oc3ccnc(C(=O)NC4CCN(C)CC4)c3)c(F)c2)c(-c2ccc(F)cc2)o1 ?
Output: < 50%

Input: // query inhibition at 5 µM value for entry COc1nc(C(=O)Nc2ccc(Oc3ccnc(C(=O)NCC(F)(F)F)c3)c(F)c2)c(-c2ccc(F)cc2)o1
Output: < 50%

Input: Find the recorded inhibition at 5 µM belonging to CNC(=O)c1cc(Oc2ccc(NC(=O)c3nc(C4CC4)oc3-c3ccc(F)cc3)cc2F)ccn1 and report it.
Output: 50 to 79%

Continuing:
Input: Item under review: CNC(=O)c1cc(Oc2ccc(NC(=O)c3nc(OC)oc3-c3ccc(F)cc3)cc2F)ccn1 . Reported inhibition at 5 µM?
Output: 50 to 79%

Input: Fill blank: measured inhibition at 5 µM of the molecule CNC(=O)c1cc(Oc2ccc(NC(=O)c3nc(COC)oc3-c3ccc(F)cc3)cc2F)ccn1 is ____.
Output: 50 to 79%

Input: # inhibition at 5 µM lookup, item [2H]C([2H])([2H])NC(=O)c1cc(Oc2ccc(NC(=O)c3nc(SC)oc3-c3ccc(F)s3)cc2F)ccn1
Output: < 50%

Input: Given the entry CSc1nc(C(=O)Nc2ccc(Oc3ccnc(N)c3Cl)c(F)c2)c(-c2ccc(F)cc2)o1 , report its measured inhibition at 5 µM.
Output: < 50%

====

- Target: BRK (Homo sapiens, UniProt Q13882)
- Sequence (Q13882 whole entry, species assumed): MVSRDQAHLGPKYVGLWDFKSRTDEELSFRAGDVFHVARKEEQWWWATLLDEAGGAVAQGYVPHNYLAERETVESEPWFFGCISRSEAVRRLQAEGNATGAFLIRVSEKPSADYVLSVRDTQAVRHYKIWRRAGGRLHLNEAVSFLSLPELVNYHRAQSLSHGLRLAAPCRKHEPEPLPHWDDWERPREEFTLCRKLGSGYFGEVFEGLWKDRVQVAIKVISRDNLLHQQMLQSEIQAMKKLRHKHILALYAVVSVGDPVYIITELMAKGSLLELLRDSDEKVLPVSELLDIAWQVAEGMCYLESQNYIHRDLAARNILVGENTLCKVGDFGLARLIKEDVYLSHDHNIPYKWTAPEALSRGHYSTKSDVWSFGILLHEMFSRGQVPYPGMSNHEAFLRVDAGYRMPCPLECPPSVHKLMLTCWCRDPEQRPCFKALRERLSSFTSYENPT
- Assay overview: Kinase panel (mobility shift)
- Type: biochemical
Let's look at some molecules and their measured inhibition at 5 µM.

Input: What value of inhibition at 5 µM has been reported for the following molecule? CNC(=O)c1ccc(Oc2ccc(NC(=O)c3nc(Cl)oc3-c3ccc(F)cc3)c(F)c2)cn1 [Compound 36]
Output: < 50%

Lab note: next molecule to report on.
Input: inhibition at 5 µM lookup needed for CNC(=O)c1cc(Oc2ccc(NC(=O)c3nc(NC)oc3-c3ccc(F)cc3)cc2F)ccn1 [Compound 14] , thanks.
Output: 80 to 89%

====

- Target: TYRO3 (Homo sapiens)
- Sequence (Q06418 41-890, species assumed): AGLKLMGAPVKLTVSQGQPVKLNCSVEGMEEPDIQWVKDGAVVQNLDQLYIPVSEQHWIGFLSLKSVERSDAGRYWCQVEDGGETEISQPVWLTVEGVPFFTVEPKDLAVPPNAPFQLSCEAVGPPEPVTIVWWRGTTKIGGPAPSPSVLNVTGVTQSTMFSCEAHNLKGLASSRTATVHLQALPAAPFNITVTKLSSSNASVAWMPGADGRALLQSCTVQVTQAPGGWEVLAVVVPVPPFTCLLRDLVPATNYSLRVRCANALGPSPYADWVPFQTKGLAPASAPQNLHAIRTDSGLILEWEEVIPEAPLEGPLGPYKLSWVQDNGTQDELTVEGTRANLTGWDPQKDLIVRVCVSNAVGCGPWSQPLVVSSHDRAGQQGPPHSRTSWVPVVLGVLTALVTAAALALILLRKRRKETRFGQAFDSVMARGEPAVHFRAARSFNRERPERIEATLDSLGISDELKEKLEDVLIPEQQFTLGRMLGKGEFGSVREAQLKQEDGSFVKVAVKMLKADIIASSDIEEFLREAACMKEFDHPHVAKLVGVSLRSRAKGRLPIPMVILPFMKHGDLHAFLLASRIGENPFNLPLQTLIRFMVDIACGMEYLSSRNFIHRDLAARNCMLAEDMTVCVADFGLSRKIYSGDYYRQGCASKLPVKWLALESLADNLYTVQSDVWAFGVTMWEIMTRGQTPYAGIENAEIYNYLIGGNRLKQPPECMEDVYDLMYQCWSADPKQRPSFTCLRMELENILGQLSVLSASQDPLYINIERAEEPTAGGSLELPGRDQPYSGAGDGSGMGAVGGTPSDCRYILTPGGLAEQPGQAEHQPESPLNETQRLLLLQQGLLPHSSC
- Assay overview: Kinase panel (mobility shift)
- Type: biochemical
inhibition at 5 µM listing for selected compounds.

The cases that follow already have their inhibition at 5 µM on record.
Input: Quick one: inhibition at 5 µM for CSc1nc(C(=O)Nc2ccc(Oc3ccnc(C(=O)NC4COC4)c3)c(F)c2)c(-c2ccc(F)cc2)o1 ?
Output: 50 to 79%

Input: # inhibition at 5 µM lookup, item CNC(=O)c1cc(Oc2ccc(NC(=O)c3nc(NC)oc3-c3ccc(F)s3)cc2F)ccn1
Output: < 50%

Input: # input compound: CNC(=O)c1cc(Oc2ccc(NC(=O)c3nc(OC4CC4)oc3-c3ccc(F)cc3)cc2F)ccn1 ; wanted: its inhibition at 5 µM
Output: 90 to 94%

# evaluate next
Input: Name the reported inhibition at 5 µM value associated with the compound CNC(=O)c1cc(Oc2ccc(NC(=O)c3nc(S(C)(=O)=O)sc3-c3ccc(F)cc3)cc2F)ccn1
Output: 80 to 89%

====

# inhibition at 5 µM per record follows
- Target: EPH-B4 (Homo sapiens, UniProt P54760)
- Sequence (P54760 16-987): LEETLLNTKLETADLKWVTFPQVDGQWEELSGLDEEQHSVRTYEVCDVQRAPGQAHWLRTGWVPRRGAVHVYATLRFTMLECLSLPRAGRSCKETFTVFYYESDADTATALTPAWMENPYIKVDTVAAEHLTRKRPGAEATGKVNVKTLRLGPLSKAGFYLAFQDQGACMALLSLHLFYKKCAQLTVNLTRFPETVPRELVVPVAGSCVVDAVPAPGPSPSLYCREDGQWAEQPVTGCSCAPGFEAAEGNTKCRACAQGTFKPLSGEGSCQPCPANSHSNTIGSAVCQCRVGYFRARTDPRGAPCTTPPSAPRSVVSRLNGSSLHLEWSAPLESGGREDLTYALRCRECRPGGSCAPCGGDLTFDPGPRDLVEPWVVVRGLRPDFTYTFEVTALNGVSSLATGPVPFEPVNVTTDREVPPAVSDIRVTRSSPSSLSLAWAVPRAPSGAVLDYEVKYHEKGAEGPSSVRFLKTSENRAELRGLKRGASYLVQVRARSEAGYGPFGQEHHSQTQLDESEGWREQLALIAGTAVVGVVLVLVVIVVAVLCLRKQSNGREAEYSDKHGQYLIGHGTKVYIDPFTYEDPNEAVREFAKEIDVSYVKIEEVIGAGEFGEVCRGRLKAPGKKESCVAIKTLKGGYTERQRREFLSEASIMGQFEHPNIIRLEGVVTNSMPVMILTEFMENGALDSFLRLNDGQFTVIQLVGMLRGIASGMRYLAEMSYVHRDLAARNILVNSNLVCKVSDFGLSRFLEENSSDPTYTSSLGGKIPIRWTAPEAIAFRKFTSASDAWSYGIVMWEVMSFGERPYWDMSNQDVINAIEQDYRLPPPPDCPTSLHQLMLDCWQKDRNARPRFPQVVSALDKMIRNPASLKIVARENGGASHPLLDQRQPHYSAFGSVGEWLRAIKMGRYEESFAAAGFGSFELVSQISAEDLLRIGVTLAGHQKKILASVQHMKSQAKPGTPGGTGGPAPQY
- Assay overview: Kinase panel (mobility shift)
- Type: biochemical

Input: Form entry - test system: EPH-B4 (Homo sapiens, UniProt P54760); read-out: inhibition at 5 µM; compound: CNC(=O)c1cc(Oc2ccc(NC(=O)c3nc(SC)oc3-c3ccc(F)cc3F)cc2)ccn1
Output: < 50%

Input: Give inhibition at 5 µM (EPH-B4 (Homo sapiens, UniProt P54760)) of the following compound: CSc1nc(C(=O)Nc2ccc(Oc3ccnc(C(=O)NC4CNC4)c3)c(F)c2)c(-c2ccc(F)s2)o1
Output: < 50%

Input: Recorded inhibition at 5 µM for CNC(=O)c1cc(Oc2ccc(NC(=O)c3nc(SC)oc3-c3ccc(F)cc3F)cc2F)ccn1 with EPH-B4 (Homo sapiens, UniProt P54760), please?
Output: 50 to 79%

Input: What inhibition at 5 µM appears in the records for this compound with EPH-B4 (Homo sapiens, UniProt P54760)? CNC(=O)c1cc(Oc2ccc(NC(=O)c3nc(OCC(F)(F)F)oc3-c3ccc(F)cc3)cc2F)ccn1
Output: 50 to 79%

Input: Request - read-out inhibition at 5 µM | tested on EPH-B4 (Homo sapiens, UniProt P54760) | compound CNC(=O)c1cc(Oc2ccc(NC(=O)c3nc(C4CC4)oc3-c3ccc(F)cc3)cc2F)ccn1
Output: 80 to 89%

Input: For the record CSc1nc(C(=O)Nc2ccc(Oc3ccnc(-c4cnn(C)c4)c3)c(F)c2)c(-c2ccc(F)cc2)o1 , what value of inhibition at 5 µM is listed for EPH-B4 (Homo sapiens, UniProt P54760)?
Output: 80 to 89%

Note: attention shifts to another entry.
Input: Please provide the recorded inhibition at 5 µM for CSc1nc(C(=O)Nc2ccc(Oc3ccnc(C(=O)NC4CCN(C)CC4)c3)c(F)c2)c(-c2ccc(F)cc2)o1 , tested on EPH-B4 (Homo sapiens, UniProt P54760).
Output: < 50%
